Molecular target: His-tagged N-terminal ATP binding domain (amino acid residues 9-236) of HSP90α (Homo sapiens, UniProt P07900)
Experiment: HSP90 inhibitor binding potency: TRF competition binding assay
Settings: Table 1; competition with biotinylated radicicol
pIC50: −log10 of the molar value.
Listing of entries alongside the reported pIC50.

Some entries whose results are on file:
> print(dat)
                                   compound  value.observed
1  Cc1nc(N)nc2c1C(=O)NC(c1ccc(F)cc1-c1cccc(F)c1F)C2 (stereo not drawn) [Compound 32]          > 5.00
2  COc1cncc(-c2cc(F)ccc2[C@H]2Cc3nc(N)nc(C)c3C(=O)N2)n1 [Compound 11]          > 5.00

Input Cc1nc(N)nc2c1C(=O)NC(c1ccc(F)cc1-c1ccc(F)nc1)C2 (stereo not drawn) [Compound 17] , output reported pIC50. > 5.00

* * *

Target: His-tagged N-terminal ATP binding domain (amino acid residues 9-236) of HSP90α (Homo sapiens, UniProt P07900)
Assay: HSP90 inhibitor binding potency: TRF competition binding assay
Conditions: Table 2; competition with biotinylated radicicol
pIC50: −log10 of the molar value.
Quantity Name: pIC50

// solved cases for pIC50 follow
> print(dat)
                                   compound  quantity.name  value.observed
1  CCOc1cncc(-c2cc(F)ccc2[C@H]2Cc3nc(N)ncc3C(=O)N2)n1 [Compound 87]          pIC50          > 5.00
2  CCc1nc(N)nc2c1C(=O)N[C@@H](c1ccccc1-c1csc(OC)n1)C2 [Compound 80]          pIC50          < 5.00
3  Cc1nc(N)nc2c1C(=O)N[C@@H](c1ccc(F)cc1C#N)C2 [Compound 50]          pIC50          < 5.00
4  CCOc1nc(-c2cc(F)ccc2[C@H]2Cc3nc(N)nc(C)c3C(=O)N2)cnc1N [Compound 75]          pIC50          > 5.00
5  CCOc1cccc(-c2cc(F)ccc2[C@H]2Cc3nc(N)nc(C)c3C(=O)N2)n1 [Compound 74]          pIC50          > 5.00

Could you now look at the following compound, please?
Return reported pIC50. Input compound: Cc1cc(F)ccc1-c1cc(F)ccc1[C@H]1Cc2nc(N)ncc2C(=O)N1 [Compound 61] > 5.00

* * *

Molecular target: His-tagged N-terminal ATP binding domain (amino acid residues 9-236) of HSP90α (Homo sapiens, UniProt P07900)
Test: HSP90 inhibitor binding potency: TRF competition binding assay
Conditions: Table 3; competition with biotinylated radicicol
Procedure: HSP90 Inhibitor Binding Potency: TRF Binding Assay In this example, the binding potency of HSP90 inhibitors as measured by a TRF binding assay is described. TRF competition binding assays were performed to determine the binding potency (IC50 values) of HSP90 inhibitors. […] After gentle shaking for 10 minutes, the plates were read in VICTOR for europium counts.
pIC50: −log10 of the molar value.
Recorded pIC50 values for a group of compounds are listed next.

# example entries with known answers
> print(dat)
                                   compound  value.observed
1  COc1ccc(-c2cc(F)ccc2C2Cc3nc(N)nc(C)c3C(=O)N2)cc1F (centres unmarked) [Compound 91]          < 5.00
2  COc1cccc(-c2cc(F)ccc2[C@H]2Cc3nc(N)nc(C)c3C(=O)N2Cc2ccccc2)c1F [Compound 144]          < 5.00
3  COc1nc(-c2cc(F)ccc2[C@H]2Cc3nc(N)ncc3C(=O)N2)cnc1N [Compound 97]          > 5.00
4  Cc1nc(N)nc2c1C(=O)NC(c1ccc(F)cc1-c1ccncc1)C2 (centres unmarked) [Compound 90]          < 5.00
5  COc1ncc(-c2cc(F)ccc2[C@H]2Cc3nc(N)nc(C)c3C(=O)N2CCC(C)C)nc1OC [Compound 147]          > 5.00

Return value of pIC50 for input C=CCN1C(=O)c2c(C)nc(N)nc2C[C@@H]1c1ccc(F)cc1-c1cnc(N)c(OC)n1 [Compound 105] , no commentary. > 5.00

State its pIC50 for this compound: COc1cncc(-c2cc(F)ccc2[C@H]2Cc3nc(N)nc(C)c3C(=O)N2Cc2ccccc2Cl)n1 [Compound 130] > 5.00

// fetch pIC50 given entry COc1cccc(-c2cc(F)ccc2[C@H]2Cc3nc(N)nc(C)c3C(=O)N2Cc2cccc(Cl)c2)n1 [Compound 116] > 5.00
